Molecular target: Human plasma kallikrein (Homo sapiens)
Construct: yields a heavy chain (371 amino acids) and a light chain (248 amino acids)
Sequence (P03952 391-638 limits assumed): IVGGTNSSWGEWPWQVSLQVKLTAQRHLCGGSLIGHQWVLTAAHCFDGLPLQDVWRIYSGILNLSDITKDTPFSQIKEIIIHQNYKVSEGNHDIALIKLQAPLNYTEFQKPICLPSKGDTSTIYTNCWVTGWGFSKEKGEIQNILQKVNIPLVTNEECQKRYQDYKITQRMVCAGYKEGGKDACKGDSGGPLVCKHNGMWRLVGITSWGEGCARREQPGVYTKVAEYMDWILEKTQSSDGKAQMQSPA
Sequence (P03952 20-390 partner limits assumed): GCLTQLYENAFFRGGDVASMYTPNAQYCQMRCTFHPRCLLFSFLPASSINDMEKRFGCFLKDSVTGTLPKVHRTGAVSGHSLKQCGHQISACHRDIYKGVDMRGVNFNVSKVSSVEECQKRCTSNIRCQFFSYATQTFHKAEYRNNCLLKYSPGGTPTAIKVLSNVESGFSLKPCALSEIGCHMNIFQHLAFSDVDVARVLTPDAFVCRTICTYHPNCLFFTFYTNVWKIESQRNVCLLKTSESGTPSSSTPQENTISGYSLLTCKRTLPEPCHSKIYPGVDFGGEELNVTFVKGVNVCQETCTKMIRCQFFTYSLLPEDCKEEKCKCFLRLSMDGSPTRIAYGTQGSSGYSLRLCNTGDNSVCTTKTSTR
Test: Kallikrein Assay (fluorogenic substrate hydrolysis, AFC release)
Conditions: purified Human plasma kallikrein 0.5 nM; substrate Acetyl-K—P—R-AFC 100 mM; 50 mM HEPES pH 7.4
measure: IC50 (nM)

[
  {
    "compound": "Cc1ccc(C#N)c([C@H]2C[C@@H](NC(=O)c3cn(C(C)c4cnc(N5C[C@H]6C[C@H]6C5=O)c(C)n4)nn3)C2)n1 (single isomer, unassigned) [Example 116]",
    "recorded.number": 6.9
  }
]

1. Cc1cc(N2C[C@H]3C[C@H]3C2=O)ncc1C(C)n1cc(C(=O)NC2CC(c3cc(Cl)ccc3C#N)C2)c(C(C)O)n1 (single isomer, unassigned)
2. Cc1ccc(C#N)c([C@H]2C[C@@H](NC(=O)c3cn(C(C)c4cnc(N5C[C@H]6C[C@H]6C5=O)c(C)c4C)nn3)C2)n1 (single isomer, unassigned) [Example 99]
3. Cc1c(C(C)n2cc(C(=O)N[C@H]3C[C@@H](c4cc(Cl)ccc4C#N)C3)cn2)cnc(N2C[C@H]3C[C@H]3C2=O)c1F (single isomer, unassigned) [Example 28]
4. CC(c1cnc(N2C[C@H]3C[C@H]3C2=O)c(F)c1)n1cc(C(=O)N[C@H]2C[C@@H](c3cc(Cl)ccc3C#N)C2)cn1 (single isomer, unassigned) [Example 21]
Please order the records by their reported IC50, lowest number first. # answer = labels listed in requested order
3, 2, 4, 1

Where these numbers come from: patent US12528786B2
